molecular target: ABL1 (human); test: radiometric filter-binding kinase assay, Kinase HotSpot; details: compound 0.5 µM; ATP 10 µM
Criterion: residual activity strictly under 80%. Met: Satisfied. Not met: Not satisfied.

Some solved cases for reference:
smiles_str=N#C/C(=C1/Nc2ccccc2S1)c1ccnc(NCCc2cccnc2)n1 class_name="Not satisfied"
smiles_str=O=C1NC(=O)c2c1c1c3ccccc3[nH]c1c1[nH]c3cc(Br)ccc3c21 class_name="Not satisfied"
smiles_str=c1ccc(-c2cnc(Nc3ccc(OCCN4CCCC4)cc3)s2)cc1 class_name=Satisfied

Lab log: compare recorded residual activity with 80%; is it strictly lower for `Cc1cc(Nc2nc(-c3ccccc3)nc3ccccc23)n[nH]1` ?
Satisfied

Lab log: compare recorded residual activity with 80%; is it strictly lower for `N/C(=N\N=C/c1ccc(-c2cccc([N+](=O)[O-])c2)o1)N[N+](=O)[O-]` ?
Not satisfied
